# system tested: Beta-lactamase (Escherichia coli (strain K12))
# Sequence (P00811 whole entry): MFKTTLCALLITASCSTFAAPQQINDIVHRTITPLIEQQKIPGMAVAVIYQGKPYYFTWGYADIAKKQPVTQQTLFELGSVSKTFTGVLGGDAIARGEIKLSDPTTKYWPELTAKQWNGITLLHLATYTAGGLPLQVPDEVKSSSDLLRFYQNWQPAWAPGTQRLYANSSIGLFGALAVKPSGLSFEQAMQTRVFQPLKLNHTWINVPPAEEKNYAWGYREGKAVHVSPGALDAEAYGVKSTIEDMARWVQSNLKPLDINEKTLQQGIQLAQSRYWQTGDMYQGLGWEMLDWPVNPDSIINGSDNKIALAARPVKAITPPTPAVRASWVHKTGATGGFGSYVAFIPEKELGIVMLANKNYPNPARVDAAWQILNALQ
# test summary: Enzyme Inhibition Assay
# setup conditions: pH 7
measurement label: log10 of Ki (log10 of the value in µM)
Plainly stated, the numbers are log10 of Ki given in µM.

Some solved cases for reference:
compound	measurement label	recorded measurement
O=C(Cc1cccs1)NCB(O)O [N-2-THIOPHEN-2-YL-ACETAMIDE BORONIC ACID]	log10 of Ki	-0.49
OB(O)O	log10 of Ki	3.45
O=C(CCl)NCB(O)O	log10 of Ki	-0.62

compound `O=C(Cc1ccccc1)NCB(O)O` , log10 of Ki observed: -0.24

compound `CCOc1ccc2ccccc2c1C(=O)NCB(O)O` , log10 of Ki observed: -1.48

compound `CB(O)O` , log10 of Ki observed: 3.00

compound `O=CNCB(O)O` , log10 of Ki observed: 0.68

compound `O=C(CSc1ccncc1)NCB(O)O` , log10 of Ki observed: -0.76

compound `CC(=O)NCB(O)O` , log10 of Ki observed: 1.27

compound `O=C(COc1ccccc1)NCB(O)O` , log10 of Ki observed: -0.15

compound CC(Oc1ccccc1)C(=O)NCB(O)O (stereo unspecified) , log10 of Ki observed: -0.52

From: BindingDB's records for doi:10.1016/S1074-5521(00)00052-1
